Listing of recorded growth inhibition by entry.
Test: NCI Yeast Anticancer Drug Screen. Data for the bub3 strain (AID 167)
Conditions: S. cerevisiae bub3 mutant strain, at 5.0 µM (retest, dose inferred, filed as 0.5), stronger effect = higher value
Compounds without any hit were thinned out: in the full panel of roughly 79,000, 15% have a hit.
Form entry: value (%) — number only.

Consider the worked cases shown below.
OCc1ccccc1CC(O)(c1ccccc1)c1ccccc1    -19
COc1cccnc1/C=N/NC(N)=S    0
N#CSCc1ccc(CSC#N)c(Cl)c1    11

# context switch: different compound, same growth inhibition
Task: Can you share its growth inhibition? I mean this compound: COc1c2occc2c(OC)c2c(C)c(C(=O)OCCN3CCOCC3)oc12
Result: 1

* * *

Experiment: NCI Yeast Anticancer Drug Screen. Data for the mec2-1 strain (AID 157)
Conditions: S. cerevisiae mec2-1 strain, at 5.0 µM (retest, dose inferred, filed as 0.5), stronger effect = higher value
About 79,000 compounds went through this panel and 15% of them were active in at least one assay; those are over-represented in the sample as a whole.
Known growth inhibition of a selection of compounds
Kindly provide the numeric value in % only, without the unit symbol.

COc1cc(C(=O)NC(CCC(=O)O)C(=O)O)ccc1N(C)Cc1cnc2nc(N)nc(N)c2n1 (stereo not drawn)    -3
O=C1CCSC(=S)N1c1ccc(N=Nc2ccccc2)cc1    9
O=C1C2=Cc3ccccc3CCN2c2ccccc21    -6
S=C1Nc2cnc3ccccc3c2SC1c1ccccc1 (stereo not drawn)    7
O=C1CC(=S)NC(=S)N1    0

Task: Given the entry Cn1cc(NC(=O)c2cc(NC(=O)CCCCCCCCCCC(=O)Nc3cc(C(=O)Nc4cc(C(=O)NCCC(=N)N)n(C)c4)n(C)c3)cn2C)cc1C(=O)NCCC(=N)N , report its measured growth inhibition.
Result: 95

Task: State the recorded growth inhibition for this entry: Clc1cc(Cl)c(NN=C(c2ccccc2)c2ccccc2)c(Cl)c1
Result: 39

Task: What does the data say about its growth inhibition? Entry: CC(C)N=C1NS(=O)(=O)c2ccccc21
Result: -2

Task: State the recorded growth inhibition for this entry: CN(C)c1ccc(C(O)(Cc2cccc(C#N)c2)c2ccc(N(C)C)cc2)cc1
Result: 0

Task: What measured growth inhibition goes with COc1ccc2c(c1)CCc1c-2ccc(C)c1CCC(=O)O ?
Result: 21

Task: Give its growth inhibition value. Item: CN(C)/N=C(/CC(O)(C(F)(F)F)C(F)(F)F)c1ccc([N+](=O)[O-])cc1
Result: 19

Task: Which value of growth inhibition has been reported for c1ccc2c(c1)Nc1ccccc1[P+]21c2ccccc2Nc2ccccc21 in the records?
Result: 99

Task: Can you look up the measured growth inhibition of O=C(Nc1cccc(Br)c1)Oc1ccc(Cl)c2cccnc12 for me?
Result: 4

* * *

Experiment: NCI Yeast Anticancer Drug Screen. Data for the sgs1 mgt1 strain (AID 161);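 further: 0% = growth of cultures given vehicle only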
Settings: S. cerevisiae sgs1 mgt1 strain, at 50.0 µM (retest, dose inferred, filed as 5.0)
The panel holds about 79,000 compounds, 15% with a hit somewhere; the sample as a whole holds those more often. The source made the active and inactive calls. Cut-off read from the data, not from the text of the source: active = growth inhibition above about 70%; inactive = the rest.
The reply should name one outcome from active, inactive

CC(C)(C)CC(C)(C)c1ccc(O)c(O)c1    active
COC(OC)(c1ccccc1)C(I)I    active
C[n+]1c(/C=C/c2ccc([N+](=O)[O-])cc2)ccc2ccccc21    active
CC1=NC(=Cc2ccc(Cl)cc2)C(=O)N1n1c(-c2ccccc2)nc2ccccc2c1=O    active
CN(C)c1ccc(C2ON=C(c3ccccc3)N2C23CC4CC(CC(C4)C2)C3)cc1 (configuration not stated)    inactive

Task: Query: recorded result category for CC(C)C1(c2ccccc2)C(=O)c2ccccc2C1=O in this test
Result: active

Task: // outcome(item) with item = CCS(=O)(=O)/C=C/c1ccc2ccccc2n1
Result: inactive
